Biological target: GST-JAK2(808-1132) (Homo sapiens, UniProt O60674)
Construct: GST-JAK2(808-1132); purchased Invitrogen (Carlsbad, USA) #4288
Sequence (O60674 808-1132): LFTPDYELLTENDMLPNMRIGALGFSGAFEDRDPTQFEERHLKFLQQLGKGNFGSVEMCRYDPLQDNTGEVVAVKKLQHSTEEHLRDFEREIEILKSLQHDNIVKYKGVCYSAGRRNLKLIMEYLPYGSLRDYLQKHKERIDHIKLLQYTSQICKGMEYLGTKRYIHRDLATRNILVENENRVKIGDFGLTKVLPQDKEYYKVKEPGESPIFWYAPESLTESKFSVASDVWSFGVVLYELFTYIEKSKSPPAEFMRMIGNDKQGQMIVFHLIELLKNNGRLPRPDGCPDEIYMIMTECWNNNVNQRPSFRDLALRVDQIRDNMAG
Experiment: EPK JAK-family kinases profiling assay (Caliper mobility shift), JAK2
Assay type: biochemical
Conditions: ATP 20 μM, 1.8 nM kinase
pIC50: −log10 of the molar value.
value.kind: pIC50

Before answering, review these 2 worked examples.
INSERT INTO assay_data (compound, tested_on, reported_measurement) VALUES
  ('COCCOc1ccc(-c2cnc3cccc(-c4ccc(CN5CCS(=O)(=O)CC5)c(C)c4)c3n2)cc1OC [Example 52]', 'GST-JAK2(808-1132) (Homo sapiens, UniProt O60674)', 7.49),
  ('Cc1cc(-c2cnc3cccc(-c4ccc(CN5CCOCC5)c(C(F)(F)F)c4)c3n2)ccc1C(=O)N(C)C [Example 55]', 'GST-JAK2(808-1132) (Homo sapiens, UniProt O60674)', 7.05);

[P] COc1cc(-c2cnc3cccc(-c4ccc(S(C)(=O)=O)cc4)c3n2)cc(OC)c1OC [Example 2]
[Q] COc1ccc(-c2cnc3cccc(-c4ccc(S(C)(=O)=O)cc4)c3n2)cc1OC [Example 23]
Recorded pIC50 values differ for P and Q ; which one is higher? When you have decided, please share the label of that item.
P
(P: 6.92, Q: 6.70)
